System: K4 kissing-loop RNA reporter;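 note: bound reporter read as fluorescence of individual clusters on recovered sequencing chips by microscopy, with normalized cluster intensities fitted with a binding model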
Assay info: apparent KD of K4 kissing-loop reporter; higher = weaker reporter binding
Condition description: Eterna round: R107; input ligand: FMN 200 uM
// reported apparent KD of K4 kissing-loop reporter per item
Just the number please, in nM, no unit attached.

Examples with answers:
record_sequence="AGUGAUGUGGGAAGGAGCGCUACAUCACUUCAGUGAUGUUGAAGUGAUGAAUUAGUGAUGUAGCAGGUAGGUCGCCUAGAUGUUA [KL-XARG-B12]" readout_name="apparent KD of K4 kissing-loop reporter" unit_string=nM readout_value=76.3
record_sequence="UGUACCGAGUCAGGAUAUAGCGUCGAAAGACGAAAUGGAGUGAUGUUCCUUAAACUGCGAAAGCAGCUAGAAGGGACUUGGUACU [FmnBS 28 #SwitchBubble #StaticStem #DoubleMagnetSystem]" readout_name="apparent KD of K4 kissing-loop reporter" unit_string=nM readout_value=153
record_sequence=GCCGUAGAUUGAAGGAGCGGCUUCAUCAAAUCUCUUGCCCGCACCAGUGAUGUUGGUGUUAGCCAGGUAGGUCGCAAUCUACGGC readout_name="apparent KD of K4 kissing-loop reporter" unit_string=nM readout_value=577
record_sequence="UUUGGAUUGCGCUAAGAGUGCAAGCGCCAACGAGGACCGGUACGGCCGCCACUCGCGGAGGAGUCCAGUGAUGUUGGACGGCCCG [Orbile]" readout_name="apparent KD of K4 kissing-loop reporter" unit_string=nM readout_value=326
record_sequence="ACGAAUCCAGCGGCCGCCACUAUUCGAUGAGUGAUGUUUAGGAGUAGAUCAUACCGCCGUGGUAAUAGGACCGGGCUCUUUGUAG [theeternabot_exclusion_KL_Trp_B_36]" readout_name="apparent KD of K4 kissing-loop reporter" unit_string=nM readout_value=289

Which apparent KD of K4 kissing-loop reporter is reported for this sequence? AGGAGCGUGCGAUGAAAAUCGCACGCUCCUCGAGGACCGGUACGGCCGCCACUCGCUCGCGCCGAGUGAUGUUCGGCCGGCGAAC [#2 Same State - Tryptophan A Attempt #8 (HarryS)]
194

Which apparent KD of K4 kissing-loop reporter is reported for this sequence? CGAGUGAUGUUCGUUCGUUUAUUUCGGUGACAGGAUAUGCGGAAACGCAGAAGGGUCACCUUUGAGUUACCGGAAUUAACGUUAU [Ex FMN A 29]
564

Which apparent KD of K4 kissing-loop reporter is reported for this sequence? CGCAGUGAUGUUGCUUUUAUUCUUGGUUAACGAGGACCGGUACGGCCGCCACUCGAUUUCUAUCUAUUCCAGUGUUUUUUUGAGU [JR_ExcTryptoA_Sub004]
261

Which apparent KD of K4 kissing-loop reporter is reported for this sequence? AAGUGUGUGGCGGCCGCCACUAGAAUCCAGUGAUGUUGGAGUAAUCAAAUAAAUAAUAAUAAACAUAGGACCGGGCCAUAUAGAA [Same State - Tryptophan B (Freestyle 2)]
154

Which apparent KD of K4 kissing-loop reporter is reported for this sequence? GAUGUUUGCCGAAGGAGCGAGUAUUCGCCAGUGAUGUUGGUGAGAUAUACACGUAUCAGUGCUCAGGUAGGUCGCGGCGCUUGUU [Same State Arginine B GF 27]
123

Which apparent KD of K4 kissing-loop reporter is reported for this sequence? UUGGCUGGACGGGAUACCAGCCAAAUCGUGUGCUUGGGAUGUCUAAGAGCCAGUGAUGUUGGCCCUUGGCAGCCCUCCCAGCUUG [Inontixe]
124

Which apparent KD of K4 kissing-loop reporter is reported for this sequence? AAAGGAUCAGAGAGUGAUGUUCUCUAAUAACGAGGACCGGUACGGCCGCCACUCGAAGAUCCAAAAGUCCUACGAAAAGUAGGAC [Omei inspired 7]
92.9
